target: UniProtKB Q9UHL4
pIC50: −log10 of the molar value.
Consider the reported pIC50 of an entry and match it to a band in low (below 4), moderate (4 to below 6), high (6 or more)

// known answers, use as guide
{"columns": ["compound", "answer label"],
 "data": [
  ["NC(C(=O)N1CCCCC1)C1CCCCC1 (stereo not given)", "moderate"],
  ["O=C(C1CCCS1)N1CCCC1 (stereo not given)", "low"],
  ["NCC[C@H](N)C(=S)N1CCCCC1", "high"],
  ["NCCC(N)C(=O)N1CCOCC1 (stereo not given)", "high"],
  ["CCCCC(N)C(=O)N1CCCCC1 (stereo not given)", "moderate"]
]}

Hi, small favor: classify CCC(C)C(N)C(=O)N1CCC(N=[N+]=[N-])C1 (stereo not given) by its pIC50 when you get a moment.
moderate

Hi, small favor: classify CCC(C)C(N)C(=O)NC1CCCC1 (stereo not given) by its pIC50 when you get a moment.
low

Hi, small favor: classify NCCCCC(N)C(=O)N1CCC1 (stereo not given) by its pIC50 when you get a moment.
low

Hi, small favor: classify CCCC(N)C(=O)N1CCCCC1 (stereo not given) by its pIC50 when you get a moment.
moderate

Hi, small favor: classify NCC(N)C(=O)N1CCCCC1 (stereo not given) by its pIC50 when you get a moment.
moderate

Hi, small favor: classify "NCCC[C@H](N)C(=S)N1CCCCC1" by its pIC50 when you get a moment.
high

Hi, small favor: classify NCCCCC(N)C(=O)N1CCC(O)C1 (stereo not given) by its pIC50 when you get a moment.
moderate

###

Each entry below carries its measured IC50, system: Dipeptidyl peptidase 2 (Homo sapiens).
Record the value in µM, omitting the unit from your answer.

Solved cases (3 shown):
{"columns": ["compound", "tested system", "endpoint unit", "IC50"],
 "data": [
  ["NCCCCC(N)C(=O)N1CC=CCC1 (configuration not stated)", "Dipeptidyl peptidase 2 (Homo sapiens)", "µM", 10.9],
  ["NCCC(N)C(=O)N1CCCCC1 (stereo in doubt; 9.10)", "Dipeptidyl peptidase 2 (Homo sapiens)", "µM", 191],
  ["NCCCCC(N)C(=O)N1CCCCCC1 (configuration not stated)", "Dipeptidyl peptidase 2 (Homo sapiens)", "µM", 51.9]
]}

Supply IC50 measured with Dipeptidyl peptidase 2 (Homo sapiens) for NC(CO)C(=O)N1CCCCC1 (configuration not stated) .
62

Supply IC50 measured with Dipeptidyl peptidase 2 (Homo sapiens) for NCCCC[C@H](N)C(=O)N1CCCCC1 (stereo in doubt; 9.5) .
2.1

Supply IC50 measured with Dipeptidyl peptidase 2 (Homo sapiens) for "NCC[C@@H](N)C(=O)N1CCCCC1" .
130

###

target: Dipeptidyl peptidase 4 (Homo sapiens)
Sequence (P27487 whole entry): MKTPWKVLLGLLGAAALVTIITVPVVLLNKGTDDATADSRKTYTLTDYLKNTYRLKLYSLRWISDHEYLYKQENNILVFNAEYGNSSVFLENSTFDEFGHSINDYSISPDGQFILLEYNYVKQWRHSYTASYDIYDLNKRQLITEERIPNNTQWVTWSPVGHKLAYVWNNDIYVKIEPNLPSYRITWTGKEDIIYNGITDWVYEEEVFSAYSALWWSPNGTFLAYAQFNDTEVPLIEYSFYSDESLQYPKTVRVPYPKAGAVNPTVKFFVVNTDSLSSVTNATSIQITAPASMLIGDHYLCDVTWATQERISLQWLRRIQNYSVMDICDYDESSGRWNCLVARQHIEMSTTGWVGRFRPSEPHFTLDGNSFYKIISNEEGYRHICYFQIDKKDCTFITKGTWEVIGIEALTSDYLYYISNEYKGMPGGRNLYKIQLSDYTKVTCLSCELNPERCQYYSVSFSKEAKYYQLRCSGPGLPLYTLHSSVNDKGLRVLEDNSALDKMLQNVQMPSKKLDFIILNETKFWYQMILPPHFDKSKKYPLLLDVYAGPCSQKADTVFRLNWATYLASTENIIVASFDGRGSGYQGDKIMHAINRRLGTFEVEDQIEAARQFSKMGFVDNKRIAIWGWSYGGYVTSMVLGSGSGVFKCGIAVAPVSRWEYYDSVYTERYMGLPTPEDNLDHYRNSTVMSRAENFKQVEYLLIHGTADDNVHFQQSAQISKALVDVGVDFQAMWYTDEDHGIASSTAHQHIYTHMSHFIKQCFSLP
Lab note: anything with IC50 below 400 µM is marked 1 (yes); values at 400 µM or higher are marked 0 (no).

API: query returns whether the compound falls strictly under 400 µM in IC50. Query: "NCC[C@H](N)C(=S)N1CCCCC1"
0 (no)

API: query returns whether the compound falls strictly under 400 µM in IC50. Query: NCC(N)C(=O)N1CCCCC1 (centres undefined)
0 (no)

API: query returns whether the compound falls strictly under 400 µM in IC50. Query: NCCC(N)C(=O)N1CCCCC1 (stereo in doubt; 9.10)
0 (no)

API: query returns whether the compound falls strictly under 400 µM in IC50. Query: NCCC(N)C(=O)N1CCOCC1 (centres undefined)
0 (no)

API: query returns whether the compound falls strictly under 400 µM in IC50. Query: CCCN(C)C(=O)C(N)C(C)CC (centres undefined)
1 (yes)

API: query returns whether the compound falls strictly under 400 µM in IC50. Query: CCC(C)C(N)C(=O)NC1CCCC1 (centres undefined)
0 (no)

API: query returns whether the compound falls strictly under 400 µM in IC50. Query: CCCCC(N)C(=O)N1CCCCC1 (centres undefined)
1 (yes)

API: query returns whether the compound falls strictly under 400 µM in IC50. Query: CCCC(N)C(=O)N1CCCCC1 (centres undefined)
1 (yes)

API: query returns whether the compound falls strictly under 400 µM in IC50. Query: NCCCCC(N)C(=O)N1CC=CCC1 (centres undefined)
0 (no)

API: query returns whether the compound falls strictly under 400 µM in IC50. Query: NCCCCC(N)C(=O)N1CCC1 (centres undefined)
0 (no)

API: query returns whether the compound falls strictly under 400 µM in IC50. Query: NCCC(N)C(=O)N1CCNCC1 (centres undefined)
0 (no)

API: query returns whether the compound falls strictly under 400 µM in IC50. Query: "NCCC[C@H](N)C(=S)N1CCCCC1"
0 (no)

API: query returns whether the compound falls strictly under 400 µM in IC50. Query: "NCC[C@@H](N)C(=O)N1CCCCC1"
0 (no)
